Data origin: patent US9227962B2

# Assay Summary: solubility in buffer solution, HPLC
# Format: physicochemical
# Condition Description: aqueous buffer, kinetic from dmso stock; buffer solution pH 7.4; read-out: solubility pH 7.4
Reported solubility values for the following molecules.
Supply the numeric figure in µg/mL, leaving out any unit text.

CCN(CC)CCNC(=O)c1c(C)[nH]c(/C=C2\C(=O)Nc3ccc(-n4cc(-c5ccccc5)nn4)cc32)c1C [Example 49] : 13

Fill in the blank: the reported solubility of CCN(CC)CCNC(=O)c1c(C)[nH]c(/C=C2\C(=O)Nc3ccc(-c4nnc(-c5ccccc5)s4)cc32)c1C [Example 52] is ____.
4

Fill in the blank: the reported solubility of CCN(CC)CCNC(=O)c1c(C)[nH]c(/C=C2\C(=O)Nc3ccc(-c4cnc(-c5ccccc5)[nH]4)cc32)c1C [Example 41] is ____.
0.3

Fill in the blank: the reported solubility of CCN(CC)CCNC(=O)c1c(C)[nH]c(/C=C2\C(=O)Nc3ccc(-c4nc(-c5ccccc5)n[nH]4)cc32)c1C [Example 50] is ____.
7

---

# Assay Summary: solubility in buffer solution, HPLC
# Type: physicochemical
# Condition Description: simulated gastric fluid, kinetic from dmso stock; buffer solution pH 1.2; read-out: solubility pH 1.2
Reported solubility values for the following molecules.
Supply the numeric figure in µg/mL, leaving out any unit text.

Some solved entries appear below for comparison.
CCN(CC)CCNC(=O)c1c(C)[nH]c(/C=C2\C(=O)Nc3ccc(-c4cn(-c5ccccc5)nn4)cc32)c1C : 147
CCN(CC)CCNC(=O)c1c(C)[nH]c(/C=C2\C(=O)Nc3ccc(-c4nc(-c5ccccc5)n[nH]4)cc32)c1C : 154
CCN(CC)CCNC(=O)c1c(C)[nH]c(/C=C2\C(=O)Nc3ccc(-n4cc(-c5ccccc5)nn4)cc32)c1C : 109
CCN(CC)CCNC(=O)c1c(C)[nH]c(/C=C2\C(=O)Nc3ccc(C4CCN(c5ncccn5)CC4)cc32)c1C : 163
CCN(CC)CCNC(=O)c1c(C)[nH]c(/C=C2\C(=O)Nc3ccc(-c4cnc(-c5ccccc5)[nH]4)cc32)c1C : 186
CCN(CC)CCNC(=O)c1c(C)[nH]c(/C=C2\C(=O)Nc3ccc(-c4cc(-c5ccccc5)nn4C)cc32)c1C : 43

Continue with the next molecule.
Fill in the blank: the reported solubility of CCN(CC)CCNC(=O)c1c(C)[nH]c(/C=C2\C(=O)Nc3ccc(-c4nnc(-c5ccccc5)s4)cc32)c1C is ____.
163

---

# Assay Summary: solubility in buffer solution, HPLC
# Type: physicochemical
# Condition Description: aqueous buffer, kinetic from dmso stock; buffer solution pH 7.4; read-out: solubility pH 7.4
# Protocol: A solution of compounds (10 mM in dimethylsulfoxide, 2 μL) was diluted with 50% acetonitrile (198 μL), and this solution was used as a standard solution. On the other hand, a solution of compounds (10 mM in dimethylsulfoxide, 15 μL) was transferred to a 96 well plate, then solvent was removed in vacuo. Dimethyl sulfoxide (3 μL) was added to dissolve a residual solid, and then buffer solution (pH7.4 or 1.2, 300 μL) was added. […] An insoluble material was removed, then the solution was analyzed by HPLC. […]
Reported solubility values for the following compounds.

CCN(CC)CCNC(=O)c1c(C)[nH]c(/C=C2\C(=O)Nc3ccc(-c4ccc(-c5cccnc5)s4)cc32)c1C : < 0.5 µg/mL

Fill in the blank: the reported solubility of CCN(CC)CCNC(=O)c1c(C)[nH]c(/C=C2\C(=O)Nc3ccc(-c4cn(-c5ccccc5)nn4)cc32)c1C is ____.
< 0.3 µg/mL

Fill in the blank: the reported solubility of CCN(CC)CCNC(=O)c1c(C)[nH]c(/C=C2\C(=O)Nc3ccc(-c4nc(-c5ccccc5)cs4)cc32)c1C is ____.
< 0.5 µg/mL

---

# Assay Summary: solubility in buffer solution, HPLC
# Format: physicochemical
# Condition Description: simulated gastric fluid, kinetic from dmso stock; buffer solution pH 1.2; read-out: solubility pH 1.2
Reported solubility values for the following compounds.

Some solved entries appear below for comparison.
CCN(CC)CCNC(=O)c1c(C)[nH]c(/C=C2\C(=O)Nc3ccc(-c4nnc(-c5ccccc5)o4)cc32)c1C [Example 53] : > 200 µg/mL
CCN(CC)CCNC(=O)c1c(C)[nH]c(/C=C2\C(=O)Nc3ccc(-c4ccc(-c5cccnc5)s4)cc32)c1C [Example 26] : > 200 µg/mL

Fill in the blank: the reported solubility of CCN(CC)CCNC(=O)c1c(C)[nH]c(/C=C2\C(=O)Nc3ccc(C4CCN(c5ccccc5)CC4)cc32)c1C [Example 42] is ____.
> 200 µg/mL

Fill in the blank: the reported solubility of CCN(CC)CCNC(=O)c1c(C)[nH]c(/C=C2\C(=O)Nc3ccc(-c4nc(-c5ccccc5)cs4)cc32)c1C [Example 51] is ____.
> 200 µg/mL

Fill in the blank: the reported solubility of CCN(CC)CCNC(=O)c1c(C)[nH]c(/C=C2\C(=O)Nc3ccc(C4CCN(C5CCOCC5)CC4)cc32)c1C [Example 12] is ____.
> 200 µg/mL
